targetSystem: T1, Human CD137 ECD (human)
T1 construct: also called 4-1BB
T1 sequence (chain, as listed by the source limits assumed): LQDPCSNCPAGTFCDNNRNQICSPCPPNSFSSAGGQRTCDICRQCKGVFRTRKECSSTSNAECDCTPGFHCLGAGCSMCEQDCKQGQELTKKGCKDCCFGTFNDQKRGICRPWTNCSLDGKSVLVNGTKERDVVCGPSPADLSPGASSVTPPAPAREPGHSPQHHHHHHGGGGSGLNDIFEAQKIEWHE
measurementNotes: single mutant vs template dBBDu183H
Field: label. Allowed values: 1 (yes) (fold change of affinity < 0.6 fold) or 0 (no) (fold change of affinity >= 0.6 fold).

{"binder": "H183/L072 VH G52cR (antibody, name in Kabat numbering, V domains shown) VH: QVQLVESGGGLVQPGRSLRLSCAASGFTFSNAWMHWVRQAPGKGLEWVAQIKDKRNAYAAYYAPSVKGRFTISRDDSKNSIYLQMNSLKTEDTAVYYCHYVHYASASTVLPAFGVDAWGQGTTVTVSS VL: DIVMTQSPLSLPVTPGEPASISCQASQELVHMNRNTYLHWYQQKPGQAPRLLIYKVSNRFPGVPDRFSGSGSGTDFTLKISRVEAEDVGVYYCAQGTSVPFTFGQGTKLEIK", "qualitativeLabel": "1 (yes)"}
{"binder": "H183/L072 VH Y58A (antibody, name in Kabat numbering, V domains shown) VH: QVQLVESGGGLVQPGRSLRLSCAASGFTFSNAWMHWVRQAPGKGLEWVAQIKDKGNAYAAAYAPSVKGRFTISRDDSKNSIYLQMNSLKTEDTAVYYCHYVHYASASTVLPAFGVDAWGQGTTVTVSS VL: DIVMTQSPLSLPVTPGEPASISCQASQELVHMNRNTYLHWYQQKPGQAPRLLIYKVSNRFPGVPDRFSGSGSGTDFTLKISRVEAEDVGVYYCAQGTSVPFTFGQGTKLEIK", "qualitativeLabel": "1 (yes)"}
{"binder": "H183/L072 VH Q50T (antibody, name in Kabat numbering, V domains shown) VH: QVQLVESGGGLVQPGRSLRLSCAASGFTFSNAWMHWVRQAPGKGLEWVATIKDKGNAYAAYYAPSVKGRFTISRDDSKNSIYLQMNSLKTEDTAVYYCHYVHYASASTVLPAFGVDAWGQGTTVTVSS VL: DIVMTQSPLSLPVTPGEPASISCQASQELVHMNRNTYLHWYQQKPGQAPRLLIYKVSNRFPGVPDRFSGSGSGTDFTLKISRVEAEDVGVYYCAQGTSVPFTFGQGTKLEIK", "qualitativeLabel": "0 (no)"}
{"binder": "H183/L072 VH S30V (antibody, name in Kabat numbering, V domains shown) VH: QVQLVESGGGLVQPGRSLRLSCAASGFTFVNAWMHWVRQAPGKGLEWVAQIKDKGNAYAAYYAPSVKGRFTISRDDSKNSIYLQMNSLKTEDTAVYYCHYVHYASASTVLPAFGVDAWGQGTTVTVSS VL: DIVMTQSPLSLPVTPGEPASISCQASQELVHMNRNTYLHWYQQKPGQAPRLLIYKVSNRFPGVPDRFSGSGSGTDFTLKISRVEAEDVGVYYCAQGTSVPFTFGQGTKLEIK", "qualitativeLabel": "0 (no)"}
{"binder": "H183/L072 VH A54W (antibody, name in Kabat numbering, V domains shown) VH: QVQLVESGGGLVQPGRSLRLSCAASGFTFSNAWMHWVRQAPGKGLEWVAQIKDKGNWYAAYYAPSVKGRFTISRDDSKNSIYLQMNSLKTEDTAVYYCHYVHYASASTVLPAFGVDAWGQGTTVTVSS VL: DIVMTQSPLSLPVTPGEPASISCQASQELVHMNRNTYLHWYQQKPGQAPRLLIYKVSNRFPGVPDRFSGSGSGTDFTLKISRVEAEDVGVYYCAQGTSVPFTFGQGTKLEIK", "qualitativeLabel": "0 (no)"}
{"binder": "H183/L072 VH S99M (antibody, name in Kabat numbering, V domains shown) VH: QVQLVESGGGLVQPGRSLRLSCAASGFTFSNAWMHWVRQAPGKGLEWVAQIKDKGNAYAAYYAPSVKGRFTISRDDSKNSIYLQMNSLKTEDTAVYYCHYVHYAMASTVLPAFGVDAWGQGTTVTVSS VL: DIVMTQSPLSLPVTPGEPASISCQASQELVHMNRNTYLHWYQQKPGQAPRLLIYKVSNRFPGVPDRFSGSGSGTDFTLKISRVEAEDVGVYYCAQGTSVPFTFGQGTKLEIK", "qualitativeLabel": "0 (no)"}
{"binder": "H183/L072 VH A32E (antibody, name in Kabat numbering, V domains shown) VH: QVQLVESGGGLVQPGRSLRLSCAASGFTFSNEWMHWVRQAPGKGLEWVAQIKDKGNAYAAYYAPSVKGRFTISRDDSKNSIYLQMNSLKTEDTAVYYCHYVHYASASTVLPAFGVDAWGQGTTVTVSS VL: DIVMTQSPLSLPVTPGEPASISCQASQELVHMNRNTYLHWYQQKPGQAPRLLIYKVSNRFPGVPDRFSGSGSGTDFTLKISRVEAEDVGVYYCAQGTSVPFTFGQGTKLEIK", "qualitativeLabel": "1 (yes)"}
{"binder": "H183/L072 VH A56W (antibody, name in Kabat numbering, V domains shown) VH: QVQLVESGGGLVQPGRSLRLSCAASGFTFSNAWMHWVRQAPGKGLEWVAQIKDKGNAYWAYYAPSVKGRFTISRDDSKNSIYLQMNSLKTEDTAVYYCHYVHYASASTVLPAFGVDAWGQGTTVTVSS VL: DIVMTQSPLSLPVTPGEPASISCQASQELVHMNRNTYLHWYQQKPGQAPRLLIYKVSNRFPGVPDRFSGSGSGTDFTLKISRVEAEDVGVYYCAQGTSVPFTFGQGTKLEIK", "qualitativeLabel": "1 (yes)"}
{"binder": "H183/L072 VH G26E (antibody, name in Kabat numbering, V domains shown) VH: QVQLVESGGGLVQPGRSLRLSCAASEFTFSNAWMHWVRQAPGKGLEWVAQIKDKGNAYAAYYAPSVKGRFTISRDDSKNSIYLQMNSLKTEDTAVYYCHYVHYASASTVLPAFGVDAWGQGTTVTVSS VL: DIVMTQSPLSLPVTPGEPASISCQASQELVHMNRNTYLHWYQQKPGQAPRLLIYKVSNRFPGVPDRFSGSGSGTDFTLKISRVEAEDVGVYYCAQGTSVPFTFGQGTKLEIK", "qualitativeLabel": "1 (yes)"}
